molecular target: PTHR1 (Homo sapiens, UniProt Q03431); assay: Inhibition of PTH-induced PTHR1 cAMP signaling by bPTH(7-34) analogs; conditions: Table 18; [Inhibitor] = 1 μM
Sequence (Q03431 27-593, species assumed): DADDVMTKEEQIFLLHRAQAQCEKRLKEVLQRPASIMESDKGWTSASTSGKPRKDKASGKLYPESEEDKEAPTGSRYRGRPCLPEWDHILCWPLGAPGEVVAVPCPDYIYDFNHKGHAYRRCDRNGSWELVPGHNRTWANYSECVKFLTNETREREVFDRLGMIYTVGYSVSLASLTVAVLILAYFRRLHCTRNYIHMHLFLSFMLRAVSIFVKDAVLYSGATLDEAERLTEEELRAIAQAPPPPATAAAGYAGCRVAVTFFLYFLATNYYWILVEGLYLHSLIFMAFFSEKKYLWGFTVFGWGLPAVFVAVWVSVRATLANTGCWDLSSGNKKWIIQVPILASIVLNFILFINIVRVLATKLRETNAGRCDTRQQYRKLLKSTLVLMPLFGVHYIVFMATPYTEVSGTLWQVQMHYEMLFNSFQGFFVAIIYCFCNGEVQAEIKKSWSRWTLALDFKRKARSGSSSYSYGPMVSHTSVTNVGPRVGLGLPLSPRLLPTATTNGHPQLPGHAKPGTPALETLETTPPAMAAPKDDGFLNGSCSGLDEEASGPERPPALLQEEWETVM
No end group written: not given here.
ATTRIBUTE_MEASURED: EC50(+)inhibitor/EC50(−)inhibitor

SUBSTANCE: XMHNLWKWLSSMERVEWLRKKLQDVHNF-NH2 [D6 bPTH(7-34) dTrp12 ACPC7]
ATTRIBUTE_MEASURED: EC50(+)inhibitor/EC50(−)inhibitor
RECORDED_NUMBER: 4.38

I = XMHNLWKXLSSXERVZWLRZKLQXVHNX-NH2 [FCycD6 bPTH(7-34) dTrp12 ACPC7]
II = FMHNLWKWLSSMERVEWLRKKLQDVHNF-NH2 [D6 bPTH(7-34) dTrp12]
III = LMHNLGKHLNSMERVEWLRKKLQDVHNF-NH2 [hPTH(7-34), reference compound]
IV = FMHNLWKHLSSMERVEWLRKKLQDVHNF-NH2 [bPTH(7-34)dTrp12, reference compound]
Let's sort these by EC50(+)inhibitor/EC50(−)inhibitor, smallest first. Go ahead? In plain terms: list the labels in the order you were asked to. III, I, II, IV
